# credit: patent EP0198522A1

System: sugar beet, Beta vulgaris
Assay: Herbicidal activity, post-emergence foliar spray test
Assay type: in vivo
Conditions: Dosage 5 kg/ha; assessed visually twelve days after spraying; 0-9 scale, 0 = growth as untreated control, 9 = death
Below, each entry is listed with its recorded Foliar spray SB (herbicidal effect rating).
observable: Foliar spray SB (herbicidal effect rating)

* COC(=O)c1cc2cc3c(cc2nc1C1=NC(C)(C(C)C)C(=O)N1C(C)=O)OCO3 (centres unmarked) | 7
* COC(=O)c1cc2cc3c(cc2nc1C1=NC(=O)C(C)(C(C)C)N1)OCO3 (centres unmarked) | 8
* CC(C)C1(C)NC(c2nc3cc4c(cc3cc2C(=O)[O-])OCO4)=NC1=O.[Na+] (centres unmarked) | 8
* CC(C)C1(C)NC(c2nc3cc4c(cc3cc2C(=O)O)OCO4)=NC1=O (centres unmarked) | 7
* CC(C)C1(C)NC(c2cc3c(cc2C(=O)O)OCO3)=NC1=O (centres unmarked) | 7

---

System: mustard, Sinapsis alba
Experiment: Herbicidal activity, post-emergence soil drench test
Assay type: in vivo
Details: 10 kg/ha soil drench; assessed visually thirteen days after drenching; 0-9 scale, 0 = growth as untreated control, 9 = death
Below, each entry is listed with its recorded Soil drench 10/kg/ha M (herbicidal effect rating).
observable: Soil drench 10/kg/ha M (herbicidal effect rating)

* CC(C)C1(C)NC(c2nc3cc4c(cc3cc2C(=O)[O-])OCO4)=NC1=O.[Na+] (stereo not shown) | 8
* COC(=O)c1cc2cc3c(cc2nc1C1=NC(=O)C(C)(C(C)C)N1)OCO3 (stereo not shown) | 8
* COC(=O)c1cc2cc3c(cc2nc1C1=NC(C)(C(C)C)C(=O)N1C(C)=O)OCO3 (stereo not shown) | 7
* CC(C)C1(C)NC(c2nc3cc4c(cc3cc2C(=O)O)OCO4)=NC1=O (stereo not shown) | 9

---

Test system: oat, Avena sativa
Experiment: Herbicidal activity, post-emergence foliar spray test
Assay type: in vivo
Conditions: Dosage 5 kg/ha; assessed visually twelve days after spraying; 0-9 scale, 0 = growth as untreated control, 9 = death
observable: Foliar spray O (herbicidal effect rating)

- CC(C)C1(C)NC(c2nc3cc4c(cc3cc2C(=O)O)OCO4)=NC1=O (centres unmarked): 7
- COC(=O)c1cc2cc3c(cc2nc1C1=NC(C)(C(C)C)C(=O)N1C(C)=O)OCO3 (centres unmarked): 5
- CC(C)C1(C)NC(c2nc3cc4c(cc3cc2C(=O)[O-])OCO4)=NC1=O.[Na+] (centres unmarked): 4
- CC(C)C1(C)NC(c2cc3c(cc2C(=O)O)OCO3)=NC1=O (centres unmarked): 2
- COC(=O)c1cc2cc3c(cc2nc1C1=NC(=O)C(C)(C(C)C)N1)OCO3 (centres unmarked): 6

---

Below, each entry is listed with its recorded Pre-emergence BG (herbicidal effect rating).
System: barnyard grass, Echinochloa crusgalli
Assay: Herbicidal activity, pre-emergence test (soil spray)
Type: in vivo
Conditions: Dosage 5 kg/ha, assessed visually twelve days after spraying, 0-9 scale, 0 = growth as untreated control, 9 = death
observable: Pre-emergence BG (herbicidal effect rating)

* CC(C)C1(C)NC(c2nc3cc4c(cc3cc2C(=O)O)OCO4)=NC1=O (centres unmarked) [Example 2] | 8
* CC(C)C1(C)NC(c2nc3cc4c(cc3cc2C(=O)[O-])OCO4)=NC1=O.[Na+] (centres unmarked) [Example 4] | 8
* COC(=O)c1cc2cc3c(cc2nc1C1=NC(=O)C(C)(C(C)C)N1)OCO3 (centres unmarked) [Example 1] | 8
* COC(=O)c1cc2cc3c(cc2nc1C1=NC(C)(C(C)C)C(=O)N1C(C)=O)OCO3 (centres unmarked) [Example 3] | 7
* CC(C)C1(C)NC(c2cc3c(cc2C(=O)O)OCO3)=NC1=O (centres unmarked) [Example 7] | 7

---

Tested on: maize, Zea mays
Assay: Herbicidal activity, post-emergence soil drench test
Format: in vivo
Settings: 10 kg/ha soil drench; assessed visually thirteen days after drenching; 0-9 scale, 0 = growth as untreated control, 9 = death
observable: Soil drench 10/kg/ha Mz (herbicidal effect rating)

- COC(=O)c1cc2cc3c(cc2nc1C1=NC(C)(C(C)C)C(=O)N1C(C)=O)OCO3 (stereo not shown) [Example 3]: 5
- CC(C)C1(C)NC(c2nc3cc4c(cc3cc2C(=O)O)OCO4)=NC1=O (stereo not shown) [Example 2]: 7
- CC(C)C1(C)NC(c2nc3cc4c(cc3cc2C(=O)[O-])OCO4)=NC1=O.[Na+] (stereo not shown) [Example 4]: 5
- COC(=O)c1cc2cc3c(cc2nc1C1=NC(=O)C(C)(C(C)C)N1)OCO3 (stereo not shown) [Example 1]: 6
